- Target: FTM-NN protein (membrane anchorless form of the Long fusion protein of hRSV, 70 kDa) (human respiratory syncytial virus, …, UniProt P12568 26-524)
- Experiment description: ELISA, periplasmic extract on immobilised F protein; signal as fold over blank
As shown below, each of these binders has a reported Binding RSV-A, Fold blanc value.
# unit: fold over blank | format: bare number

# Binder, Binding RSV-A, Fold blanc (fold over blank)
records = [
    ("PMP8A1 (VHH) VHH: EVQLVESGGGLVQPGGSLRVSCAASGFTFNDYIMGWFRQAPGKERMFIAAISGTGTIKYYGDLVRGRFTISRDNAKNTVYLRIDSLNPEDTAVYYCAARQDYGLGYRESHEYDYWGQGTQVTVSS", 3.7),
    ("PMP23E5 (VHH) VHH: EVQLMESGGGLVQAGGSLRLSCAASGGTFSSYAMGWFRQAPGEERDFVAAIGWSGNSPYYAQFVKGRFTISRDNAKNTVHLQMNSLKPEDTAVYYCAAAHNTMGSDYEGYDYWGQGTQVTVSS", 3.4),
    ("PMP1A2 (VHH) VHH: EVQLVESGGGLVQAGGSLRLSCAASERTFSYYAMGWFRQAPGKEREFVATISRSGEWIYYKDAMKGRFTISRDNANNAVYLQMNSLQPEDTAIYYCAADSLGGFRSASDYYNTNTYAYWGQGTQVTVSS", 4),
    ("PMP13E12 (VHH) VHH: EVQLVESGGGLVQAGGSLRLSCAASGRTFSRYIMGWFRQAPGKEREFVGAISRSGDITSFADFVKGRFTMSRDNAKNTLYLQMNSLEPEDTAVYSCAANSDTYYIYSDIVVPERYDYWGQGTQVTVSS", 3.7),
]

What measured Binding RSV-A, Fold blanc goes with PMP13D1 (VHH) VHH: EVQLVESGGGLVQPGGSLRLSCATSGFTEDYYVIGWFRQAPGKEREGVSCMSSSGDSTTYADSVKGRFTISRDNAKNMVYLQMTSLKPEDTAVYYCAADFALGCYSGSYYPRYDYWGQGTQVTVSS ?
3.1

What measured Binding RSV-A, Fold blanc goes with PMP13C1 (VHH) VHH: EVQLVESGGGLVQPGGSLRLSCEASGFTWDYYVIGWFRQAPGKEREGLSCISSDGSTTYADSVKGRFTISRDNAKNTVYLQMNSLEPEDTAVYYCATDPALGCYSGSYYPRYDYWGQGTQVTVSS ?
3

What measured Binding RSV-A, Fold blanc goes with PMP8B10 (VHH) VHH: EVQLVESGGGLVQAGASLRLSCAASGLAFSRYAMGWFRQAPGKERESVAAISSSGDNIYYADSVKGQFTMSRDNAKSSVYLQMINLKPEDTAVYYCAATSPLFVASDYFEASRYGYWGQGTQVTVSS ?
3.5

What measured Binding RSV-A, Fold blanc goes with PMP13A1 (VHH) VHH: EVQLVESGGGLVQPGGSLRLSCAASGLTLDYYALGWFRQAPGKEREGVSCISSADHSTTYADSVKGRFTISWDNAKNTVYLQMNSLKPEDTAVYYCAADPALGCYSGNYYPRYDYWGQGTQVTVSS ?
2.9

What measured Binding RSV-A, Fold blanc goes with PMP13B4 (VHH) VHH: EVQLVESGGGLVQAGGSLRLSCAASGFTFDDYAIGWFRQAPGKEREAVSCISSSDGSTYYADSVKGRFTISSDNAKNMVYLQMNSLKPEDTAVYYCAADLLRTAVGCLDYRGTYYPRTTMDYRGKGTLVTVSS ?
2.7

What measured Binding RSV-A, Fold blanc goes with PMP19E2 (VHH) VHH: EVQLVESGGGLVQPGGSLRLSCAASGLTLDYYALGWFRQAPGKEREGVSCISSSDHTTTYTDSVKGRFTISWDNAKNTLYLQMNSLKPEDTAVYYCAADPALGCYSGSYYPRYDFWGQGTQVTVSS ?
3.5

What measured Binding RSV-A, Fold blanc goes with PMP1B2 (VHH) VHH: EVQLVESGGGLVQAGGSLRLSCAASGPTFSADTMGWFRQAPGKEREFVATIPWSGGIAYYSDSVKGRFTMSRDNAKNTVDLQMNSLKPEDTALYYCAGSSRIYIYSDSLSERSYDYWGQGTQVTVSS ?
3.8
